# subject of test: human IL-17AA (Homo sapiens, UniProt Q16552)
# Sequence (Q16552 24-155): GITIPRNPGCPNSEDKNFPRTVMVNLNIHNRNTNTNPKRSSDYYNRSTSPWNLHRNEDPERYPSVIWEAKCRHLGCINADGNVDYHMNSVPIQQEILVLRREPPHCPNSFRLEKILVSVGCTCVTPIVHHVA
# experiment notes: IL-8 release assay in human epithelial keratinocytes adult (HEKa)
# test conditions: HEKa cells, 3 ng/mL HEK-human IL-17AA + 10 ng/mL human TNFalpha; read-out: Rel EC50 IL-8 release assay
Below: a set of entries, each annotated with reported EC50.
measurement type: EC50

>  <molecule>
Cc1n[nH]c(C)c1-c1ccc(NC(=O)[C@@H](NC(=O)c2ccnn2C)[C@H]2CCCc3ccccc32)cc1

>  <subject of test>
human IL-17AA (Homo sapiens, UniProt Q16552)

>  <measurement type>
EC50

>  <result>
< 0.1 µM

$$$$
>  <molecule>
Cc1n[nH]c(C)c1-c1ccc(NC(=O)[C@H](NC(=O)c2ccnn2C)C2CCCCC2)cc1

>  <subject of test>
human IL-17AA (Homo sapiens, UniProt Q16552)

>  <measurement type>
EC50

>  <result>
> 1 µM

$$$$
>  <molecule>
Cc1n[nH]c(C)c1-c1ccc(NC(=O)C(NC(=O)c2ccnn2C)C(c2ccccc2)C2CC2)cc1 (single isomer, unassigned) [Example 301]

>  <subject of test>
human IL-17AA (Homo sapiens, UniProt Q16552)

>  <measurement type>
EC50

>  <result>
0.1 to 1 µM

$$$$
>  <molecule>
Cc1n[nH]c(C)c1-c1ccc(NC(=O)[C@@H](NC(=O)c2ccnn2C)[C@@H]2CCc3ccccc32)cc1

>  <subject of test>
human IL-17AA (Homo sapiens, UniProt Q16552)

>  <measurement type>
EC50

>  <result>
0.1 to 1 µM

$$$$
>  <molecule>
Cc1[nH]nc(C2CC2)c1-c1ccc(NC(=O)[C@@H](NC(=O)c2ccnn2C(C)C)C(C2CC2)C2CC2)cc1

>  <subject of test>
human IL-17AA (Homo sapiens, UniProt Q16552)

>  <measurement type>
EC50

>  <result>
< 0.1 µM

$$$$
>  <molecule>
Cc1n[nH]c(C)c1-c1ccc(NC(=O)[C@@H](NC(=O)c2ccnn2C)C2CCC(F)(F)CC2)cc1

>  <subject of test>
human IL-17AA (Homo sapiens, UniProt Q16552)

>  <measurement type>
EC50

>  <result>
0.1 to 1 µM

$$$$
>  <molecule>
Cc1n[nH]c(C)c1-c1ccc(NC(=O)[C@@H](NC(=O)c2ccnn2C)C2[C@H]3CCCC[C@@H]23)cc1 (some centres unmarked)

>  <subject of test>
human IL-17AA (Homo sapiens, UniProt Q16552)

>  <measurement type>
EC50

>  <result>
0.1 to 1 µM

$$$$
>  <molecule>
Cc1n[nH]c(C)c1-c1ccc(NC(=O)[C@H](CC2CCC2)NC(=O)c2ccnn2C)cc1

>  <subject of test>
human IL-17AA (Homo sapiens, UniProt Q16552)

>  <measurement type>
EC50

>  <result>
> 1 µM

$$$$

Where do these numbers come from? They come from patent US11377425B1.
